Cited source: PubChem BioAssay (NCI)

test system: NCI-H23 lung; assay: NCI-60 one-dose screen, 48 h (100 = growth as untreated, 0 = no growth, -100 = all killed); settings: 10 µM
This is part of a sample that, as a whole, favours compounds with a hit. Of some 83,000 tested, about 20% had one in any assay.
Values of growth strictly less than 60% map to y, and values of at least 60% map to n.

Does the reported growth of the following molecule sit strictly below 60%? `CCCn1c(=O)c2[nH]c(-c3ccc(OCc4nc5ccc(C#N)cc5[nH]4)cc3)nc2n(CCC)c1=O`
n

Does the reported growth of the following molecule sit strictly below 60%? `CCN1CCN(c2ccc(NC(=O)Nc3ccc(-c4cc(C(=O)NC(C)C)c5ncccc5n4)cc3)cc2C(F)(F)F)CC1`
y

Does the reported growth of the following molecule sit strictly below 60%? `CC(=O)Oc1ccccc1C(=O)Oc1ccc(C(=O)/C=C/c2ccncc2)cc1`
y

Does the reported growth of the following molecule sit strictly below 60%? `Cc1ccc2nc(COc3ccc(C(=O)NNC(=S)NC(=O)c4ccccc4)cc3)[nH]c2c1`
y

Does the reported growth of the following molecule sit strictly below 60%? `Cc1ccn2c(C(=O)c3ccc(Br)cc3)cc(-c3cc(-c4ccc(N(C)C)cc4)c(C#N)c(N)n3)c2c1`
y

Does the reported growth of the following molecule sit strictly below 60%? `COc1ccc(OC)c(/C=N/NC(=O)c2ccc3nc(-c4ccc(Cl)cc4)[nH]c3c2)c1`
n

Does the reported growth of the following molecule sit strictly below 60%? `O=C(CNc1nc(-c2ccccc2)cs1)Nc1ccc([N+](=O)[O-])cc1Cl`
y

Does the reported growth of the following molecule sit strictly below 60%? `CC1(C)CC[C@]23CC[C@]4(C)[C@H](CC[C@@H]5[C@@]6(C)CC[C@H](N)C(C)(C)[C@@H]6CC[C@]54C)[C@H]2[C@H]1OC3=O`
y

Does the reported growth of the following molecule sit strictly below 60%? `COc1ccc(-c2nc(Nc3ccccc3S(N)(=O)=O)c3ccccc3n2)cc1`
y

Does the reported growth of the following molecule sit strictly below 60%? `COc1ccc(CN2[C@H](C(=O)NCc3ccc(C(=O)NO)cc3)Cc3c([nH]c4ccccc34)[C@H]2C2CC2)cc1`
y

Does the reported growth of the following molecule sit strictly below 60%? `C=C[C@@]12CN3CC[C@]1(O)[C@@](C(=O)OC)(CO2)c1[nH]c2ccccc2c1C3`
n

Does the reported growth of the following molecule sit strictly below 60%? `Cc1ccc(CSc2nc(Cl)c(C#N)c(-c3ccc(F)cc3)n2)cc1`
n

Does the reported growth of the following molecule sit strictly below 60%? C/C(=C\CSc1ccccc1C(=O)O)CCCC(C)CCCC(C)CCCC(C)C (stereo unspecified)
y

Does the reported growth of the following molecule sit strictly below 60%? `O=C(NCCCCCCCCCC[P+](c1ccccc1)(c1ccccc1)c1ccccc1)c1ccc(-n2nc(-c3ccccc3O)nc2-c2ccccc2O)cc1`
y

Does the reported growth of the following molecule sit strictly below 60%? `Nc1nc(Nc2ccc(Cl)cc2)nn1Cc1cccc(Br)c1`
y

Does the reported growth of the following molecule sit strictly below 60%? `N#Cc1c(NC(=O)c2ccc(C(F)(F)F)cc2)sc2c1CCC(=O)C2`
y

Does the reported growth of the following molecule sit strictly below 60%? `COc1cc(/C=N/NC(=O)c2ccc3nc(-c4ccc(Cl)cc4)[nH]c3c2)cc(OC)c1OC`
y

Does the reported growth of the following molecule sit strictly below 60%? `O=C(Nc1cccc(C(F)(F)F)c1)c1cncc(C#Cc2cnc3cccnn23)c1`
y

Does the reported growth of the following molecule sit strictly below 60%? `COc1ccc2nc(Cl)c(-c3cc(-c4ccccc4)nc(=S)[nH]3)cc2c1`
n

Does the reported growth of the following molecule sit strictly below 60%? `COc1ccc(/C=C/C(=O)c2ccc(N3CCN(C)CC3)cc2)c(C(F)(F)F)c1`
y

Does the reported growth of the following molecule sit strictly below 60%? `O=C(NO)c1ccc(CNC(=O)[C@H]2Cc3c([nH]c4ccccc34)[C@H](c3ccc(Cl)cc3)N2)cc1`
y

Does the reported growth of the following molecule sit strictly below 60%? `O=C(N/N=C/c1ccc(-c2cccc([N+](=O)[O-])c2)o1)c1[nH]c2ccc(Br)cc2c1-c1ccccc1`
y

Does the reported growth of the following molecule sit strictly below 60%? `O/N=C(\CSc1nnc(-c2c[nH]c3ccccc23)n1-c1ccccc1)c1ccc(Cl)cc1`
y

Does the reported growth of the following molecule sit strictly below 60%? `O=C(Nc1ccc(F)c(Cl)c1)c1cc(-c2ccc(F)cc2F)ccc1O`
y

Does the reported growth of the following molecule sit strictly below 60%? `O=C(N=Nc1c(O)[nH]c2ccc(Br)cc12)c1ccc2nc(-c3ccccc3)[nH]c2c1`
y

Does the reported growth of the following molecule sit strictly below 60%? `COc1ccc(-c2nc(S(=O)(=O)c3ccc(C)cc3)c(S(=O)(=O)CC(=O)N(C)Cc3ccccc3)o2)cc1`
y

Does the reported growth of the following molecule sit strictly below 60%? `O=C(Nc1cccc(C(F)(F)F)c1)c1cncc(C#Cc2cnc3ccc(N4CCOCC4)nn23)c1`
y

Does the reported growth of the following molecule sit strictly below 60%? `CC1(C)CC[C@]2(C(=O)Nc3ccccc3)CC[C@]3(C)C(=CC[C@@H]4[C@@]5(C)CC[C@H](N)C(C)(C)[C@@H]5CC[C@]43C)[C@H]2C1`
n

Does the reported growth of the following molecule sit strictly below 60%? `O=c1[nH]c2ccccc2cc1CSc1ccc(Nc2nccc(-c3ccc(C(F)(F)F)cc3)n2)cc1`
y

Does the reported growth of the following molecule sit strictly below 60%? `CCOc1ccc(/C=N/NC(=O)Cn2nc(Cc3ccc([N+](=O)[O-])cc3)c3onc(C)c3c2=O)cc1`
y

Does the reported growth of the following molecule sit strictly below 60%? `CC(=O)NNc1ccc2nnc(-c3ccc(Br)cc3)n2n1`
n

Does the reported growth of the following molecule sit strictly below 60%? `O=C(NC(=S)N1CCN(c2ncnc3c2cnn3-c2ccccc2)CC1)c1ccc(Cl)cc1`
y

Does the reported growth of the following molecule sit strictly below 60%? C=C1CCC2C3(C)COC(c4c(F)cccc4F)OC3CCC2(C)C1CC(O)C1=CCOC1=O (stereo unspecified)
n

Does the reported growth of the following molecule sit strictly below 60%? C=C1CCC2C3(C)COC(c4cc(F)cc(F)c4)OC3CCC2(C)C1C/C=C1/C(=O)OCC1O (stereo unspecified)
y
